// values below are reported IC50
target: Recombinant human JAK2 catalytic domain (Homo sapiens); construct: Recombinant human JAK2 catalytic domain (amino acids 808-1132; catalog number PV4210); GST; purchased Invitrogen PV4210; assay: JAK2 inhibition assay (polyGT substrate / Ulight-JAK1 peptide assay); format: biochemical; conditions: Illustrative Compounds of the invention (Table VII)
Sequence (O60674 808-1132): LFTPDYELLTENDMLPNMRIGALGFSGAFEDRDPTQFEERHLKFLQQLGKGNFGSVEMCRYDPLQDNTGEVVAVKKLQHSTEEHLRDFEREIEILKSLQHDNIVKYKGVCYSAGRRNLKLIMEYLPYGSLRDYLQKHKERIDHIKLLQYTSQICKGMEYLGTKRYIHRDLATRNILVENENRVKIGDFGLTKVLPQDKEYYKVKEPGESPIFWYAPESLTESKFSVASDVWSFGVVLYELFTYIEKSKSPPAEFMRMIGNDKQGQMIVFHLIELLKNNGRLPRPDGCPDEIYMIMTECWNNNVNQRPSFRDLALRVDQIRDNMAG

Cc1cnc(C#N)c(F)c1N(C)c1cc(NC(=O)[C@H]2C[C@H]2F)c2ncn(C)c2c1 [Cpd 22]: 0.1 to 50 nM

Recall the recorded IC50 for CCc1cc(C#N)ncc1N(C)c1cc(NC(=O)OC)c2ncn(C)c2c1 [Cpd 4] with Recombinant human JAK2 catalytic domain (Homo sapiens) and state it.
0.1 to 50 nM

Recall the recorded IC50 for CCc1cc(C#N)cc(F)c1N(C)c1cc(NC(=O)[C@@H]2C[C@@H]2F)c2ncn(C)c2c1 (racemic) [Cpd 7] with Recombinant human JAK2 catalytic domain (Homo sapiens) and state it.
0.1 to 50 nM

Recall the recorded IC50 for CCc1cc(C#N)cc(F)c1N(C)c1cc(NC(=O)OC)c2ncn(C)c2c1 [Cpd 5] with Recombinant human JAK2 catalytic domain (Homo sapiens) and state it.
0.1 to 50 nM

Recall the recorded IC50 for CNC(=O)Nc1cc(Oc2cnc(C#N)cc2C)cc2c1ncn2C with Recombinant human JAK2 catalytic domain (Homo sapiens) and state it.
0.1 to 50 nM

Recall the recorded IC50 for Cc1cc(C#N)ncc1Oc1cc(NC(=O)N2CCOCC2)c2ncn(C)c2c1 [Cpd 37] with Recombinant human JAK2 catalytic domain (Homo sapiens) and state it.
> 500 nM

Recall the recorded IC50 for CN(c1cc(NC(=O)[C@H]2C[C@H]2F)c2ncn(C)c2c1)c1ccc(C#N)cc1F [Cpd 15] with Recombinant human JAK2 catalytic domain (Homo sapiens) and state it.
100 to 500 nM

Recall the recorded IC50 for Cc1cc(F)ncc1N(C)c1cc(NC(=O)[C@H]2C[C@H]2F)c2ncn(C)c2c1 [Cpd 12] with Recombinant human JAK2 catalytic domain (Homo sapiens) and state it.
50 to 100 nM

Recall the recorded IC50 for CCc1cc(S(C)(=O)=O)ncc1Oc1cc(NC(=O)C2CC2)c2ncn(C)c2c1 [Cpd 29] with Recombinant human JAK2 catalytic domain (Homo sapiens) and state it.
100 to 500 nM

* * *

target: Recombinant human JAK2 catalytic domain (Homo sapiens); construct: Recombinant human JAK2 catalytic domain (amino acids 808-1132; catalog number PV4210); GST; purchased Invitrogen PV4210; experiment: JAK2 inhibition assay (polyGT substrate / Ulight-JAK1 peptide assay); type: biochemical; conditions: Illustrative Compounds of the invention (Table VII)
pIC50: −log10 of the molar value.
result.type: pIC50

Recall the recorded pIC50 for CN(c1cc(NC(=O)[C@H]2C[C@H]2F)c2ncn(C)c2c1)c1ccc(S(C)(=O)=O)cc1F with Recombinant human JAK2 catalytic domain (Homo sapiens) and state it.
< 6.30

* * *

Target: Recombinant human JAK1 catalytic domain (Homo sapiens)
Construct: Recombinant human JAK1 (catalytic domain, amino acids 866-1154; catalog number PV4774); purchased Invitrogen PV4774
Sequence (P23458 866-1154): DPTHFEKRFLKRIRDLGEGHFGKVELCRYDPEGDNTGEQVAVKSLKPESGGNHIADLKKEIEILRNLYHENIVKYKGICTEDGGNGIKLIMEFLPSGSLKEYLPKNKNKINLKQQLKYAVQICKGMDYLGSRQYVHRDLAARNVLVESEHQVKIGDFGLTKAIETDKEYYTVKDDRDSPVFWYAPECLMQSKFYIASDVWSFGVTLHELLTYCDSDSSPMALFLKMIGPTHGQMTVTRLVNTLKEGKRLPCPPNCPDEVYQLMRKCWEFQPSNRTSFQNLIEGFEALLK
Assay: JAK1 inhibition assay (polyGT substrate / Ulight-JAK1 peptide assay)
Assay type: biochemical
Conditions: Illustrative Compounds of the invention (Table V)
Procedure: Recombinant human JAK1 catalytic domain (amino acids 850-1154; catalog number 08-144) was purchased from Carna Biosciences. […] 40 μL/well of Microscint-20 is added, the top of the plates is sealed and readout is performed using the Topcount (Perkin Elmer). Kinase activity is calculated by subtracting counts per min (cpm) obtained in the presence of a positive control inhibitor (10 μM staurosporine) from cpm obtained in the presence of vehicle. […]
// values below are reported IC50

Recorded IC50, per entry:
CNc1cc(Oc2cnc(C#N)cc2C)cc2c1ncn2C: 100 to 500 nM
Cc1cc(C(N)=O)ncc1Oc1cc(NC(=O)[C@H]2C[C@H]2F)c2ncn(C)c2c1: 50 to 100 nM

Sample CCc1cc(C#N)ccc1Oc1cc(NC(=O)[C@H]2C[C@H]2F)c2ncn(C)c2c1 — what was its IC50?
0.1 to 50 nM

Sample CCc1cc(S(C)(=O)=O)ncc1Oc1cc(NC(=O)C2CC2)c2ncn(C)c2c1 — what was its IC50?
0.1 to 50 nM

Sample CN(c1cc(NC(=O)[C@H]2C[C@H]2F)c2ncn(C)c2c1)c1ccc(C#N)cc1F — what was its IC50?
0.1 to 50 nM
